I'd be grateful if you could share measured ratio to parent for these entries.
B1: H2-Kb / F5 (parent)
chain 1: GDSVTQTEGLVTLTEGLPVMLNCTYQSTYSPFLFWYVQHLNEAPKLLLKSFTDNKRPEHQGFHATLHKSSSSFHLQKSSAQLSDSALYYCALSPSNMGYKLTFGTGTSLLVDP
chain 2: EAAVTQSPRNKVAVTGGKVTLSCNQTNNHNNMYWYRQDTGHGLRLIHYSYGAGSTEKGDIPDGYKASRPSQENFSLILELATPSQTSVYFCASGDASEQYFGPGTRLTVL
chain 3: not shown
chain 4: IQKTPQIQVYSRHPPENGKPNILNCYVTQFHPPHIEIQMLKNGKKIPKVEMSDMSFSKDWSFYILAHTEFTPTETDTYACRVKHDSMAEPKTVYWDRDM
chain 5: SIINFEKL

Variants of: B1
test summary: % of reporter cells activated (NFAT-GFP), raw; also: test concentration or dose not given here
assay context: with F5; scale: % of reporter cells activated
Give only the figure.

Data request, read-out ratio to parent, for chain 5 N4F
0.509

Please give the measured ratio to parent for this variant: chain 5 F5Y
0.502

Look up ratio to parent for this variant: chain 5 I3Y
0.3

Record request: ratio to parent value, item chain 5 F5G
0.296

Reported ratio to parent for chain 5 E6C : what is it?
0.303

Form field: reported ratio to parent of chain 5 I3G
0.292

For the variant shown here, chain 5 S1C , give the reported ratio to parent.
0.296

What value of ratio to parent has been reported for the following variant? chain 5 F5Q
1.76

Can you share its ratio to parent? I mean this variant: chain 5 I2Q
0.472

For the variant chain 5 S1W , what ratio to parent is on record?
0.292

# query: ratio to parent of entry chain 5 E6R
0.453

Which value of ratio to parent has been reported for chain 5 I3R in the records?
0.161

Entry under review: chain 5 F5N . Reported ratio to parent?
0.655

Endpoint output: ratio to parent of chain 5 E6L . Value?
0.341

# ratio to parent lookup, item chain 5 I3T
0.356

Item under review: chain 5 N4D . Reported ratio to parent?
0.21

Which ratio to parent value belongs to chain 5 S1M ?
0.281

Recorded ratio to parent of chain 5 I3N , please.
0.251

Quick check: ratio to parent of chain 5 K7L ?
3.69

Using the record for chain 5 L8C , report its ratio to parent.
2.82

Return reported ratio to parent; argument: chain 5 I2V
1.23

What ratio to parent value was documented for this variant, chain 5 I2A ?
0.603

Requested field: ratio to parent. Item: chain 5 E6A
0.318

// lookup ratio to parent for chain 5 S1L
0.375

Can you look up the measured ratio to parent of chain 5 I3H for me?
0.311

# lookup: ratio to parent of chain 5 E6M
0.221

Any idea what its ratio to parent is? The variant is chain 5 S1D
0.288

Recorded ratio to parent for chain 5 K7S , please?
0.775

Give the measured ratio to parent of chain 5 N4I .
0.315

Look up ratio to parent for this variant: chain 5 N4G
0.24

ratio to parent lookup needed for chain 5 S1R , thanks.
0.225

Returns the measured ratio to parent for the input variant. Input: chain 5 F5A
0.921

Look at this variant and give its reported ratio to parent. chain 5 E6Y
0.296

What value of ratio to parent has been recorded for this entry: chain 5 I2R
0.273

Sample chain 5 E6N — what was its ratio to parent?
0.296

Fill in the blank: the reported ratio to parent of chain 5 N4A is ____.
0.262

What value of measured ratio to parent is listed for chain 5 E6T ?
0.36

Look at this variant and give its reported ratio to parent. chain 5 E6I
0.21

Please give the measured ratio to parent for this variant: chain 5 S1Y
0.337

Form field: reported ratio to parent of chain 5 I2S
0.483
